Tested on: biotinyl-Ile-oxazolone
Assay: self-aminoacylation, catalytic enhancement (BIO) (fold over background); higher = more active; k-Seq, kA / k0A0; sequences stand for … in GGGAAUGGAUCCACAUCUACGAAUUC…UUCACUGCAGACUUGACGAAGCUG
This sample holds only a part of the variants without activity.
Could you please report measured self-aminoacylation for the items listed next?
One number for each entry.

Reference set, count: 5
SEQ TEXT	self-aminoacylation
AUUACCCCGGUCCUCGAGUGA [Fam2.1 aminoacylation ribozyme variant]	2.29
CUUACCCUGUUCAUCGAGUGA [Fam2.1 aminoacylation ribozyme variant]	2.29
AUUCAGCUAGGUCAUCGGGGG [Fam2.2 aminoacylation ribozyme variant]	3.18
AAGUUUACUAAUAGUCGCAAA [Fam3.1 aminoacylation ribozyme variant]	1.95
AUGACCCUGGUCAUCGCGUGA [Fam2.1 aminoacylation ribozyme variant]	7.46

Working through the 7 sequences below one at a time, give self-aminoacylation for each.
1. AAGUUUUCUAAUAGUAGCAAG [Fam3.1 aminoacylation ribozyme variant]
2. CUACUUCAAACUAUCGGUCUU [Fam1A.1 aminoacylation ribozyme variant]
3. AUUGACCUAGGUGAUCGGGUG [Fam2.2 aminoacylation ribozyme variant]
4. CUACAUUUCAAGCAAUCGGUC [Fam1B.1 aminoacylation ribozyme variant]
5. AUUACCCUGGUCAACGAGUGA [Fam2.1 aminoacylation ribozyme variant]
6. AUUUCCCUGGUCAUCGAGUGC [Fam2.1 aminoacylation ribozyme variant]
7. CUUACCCUGGUCAUCGAGUAA [Fam2.1 aminoacylation ribozyme variant]

Found:
1.5
1.03
4.21
0.887
3.43
1.1
2.03
